B1: library; a variant is named by its letters at N, in order (parent)
chain: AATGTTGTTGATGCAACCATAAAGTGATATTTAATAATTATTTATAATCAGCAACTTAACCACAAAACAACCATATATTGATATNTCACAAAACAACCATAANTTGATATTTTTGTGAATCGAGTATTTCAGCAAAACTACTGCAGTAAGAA

# Variants of: B1
# assay_remarks: relative integration efficiency (T-RL orientation) vs wild-type transposon end (log2 (normalized fold change)); transposon end mutated: left end; higher = more efficient transposition
# measurement_conditions: with VchCAST RNA-guided transposition machinery (E. coli BL21(DE3) host, lacZ target)
Tick Met if relative integration efficiency (log2) is -0.2 or greater. Tick Not met if relative integration efficiency (log2) is less than -0.2.

| mutation_code | assigned_category |
| --- | --- |
| TA A16C G24T T30A A70C T76A T86G A102T T111C T113C | Met |
| CG T5A T6A G7C T8A | Not met |
| CG T30A T31A | Met |
| CG T113A T114A | Not met |
| TA G24A T30A T76A A77G C87T T104A T110A T113A | Not met |
| CG A64G | Not met |
| TA A23G G24T A33T T76A T78A T84A C87A T104A T110A T113A | Met |
| CG A27T | Not met |
| CG C49A A50T C52T T56C T57A C60A C61G A62T C63A | Not met |
| CG G117T A118C | Met |
| CG T56A T57A A58T A59T | Not met |
| TA G24A T30A A70C T76A T84A C87A T104G T113A | Met |
| CG A77T T78A | Met |
| CG T41A T42A A44G A46G T48G A50G G51A C52G A53T C55A T56C T57A A59C | Not met |
| CG A58T | Met |
| TA T76A T78G C87A A96C T112G T113C | Met |
| CG A99C T100G | Not met |
| CG T35A | Met |
| CG G80T A81C T82G A83C | Not met |
| CG A36T | Met |
| CG A73C | Not met |
| CG C98T | Met |
| CG A90T A91T | Not met |
| CG A93C | Not met |
| CG A44G T45C A47T T48A C49A G51A C52A A53T A54T T56A A58C | Not met |
| CG C49G A50T G51C C52G | Not met |
| CG A101C A102C | Not met |
| CG T9G | Met |
| CG C18A | Met |
| CG T20G | Not met |
| CG T56G T57G A58C A59C | Not met |
| CG T104G T105G G106T A107C | Not met |
| TA A22T G24T T31C A33C T76A A77G C87T T104A T110A T113A | Not met |
| CA A22T G24T T31C A33C A96C T112G T113C | Not met |
| CG T32A A33T A34T T35A | Met |
| CG T43G A44C T45G A46C | Not met |
| CG T35A A36T A37T T38A | Met |
| TA A22T G24T T31C A33C T76A A77G C87T A102T T111C T113C | Not met |
| TA A16C G24T T32G A33C A70C T76A T84A C87A T104G T113A | Not met |
| CG T108A A109T | Not met |
| CG A81T T82A A83T T84A | Not met |
| CG A1C | Met |
| CG T3G | Met |
| CG A23T G24C T25A G26C | Not met |
